Cited source: the Immune Epitope Database (IEDB)

molecular target: HLA-B*35:01; test: IEDB peptide-MHC binding, purified MHC/competitive/radioactivity; bounds were set here for any values at or beyond the usual limits of such assays; settings: source organism: Candida albicans
measured-attribute: IC50 (nM)
Give the value, in units of nM, as a plain number.

Memo: `FPASFFIKL` , reported IC50: 15

----------
biological target: HLA-B*35:01; assay: IEDB peptide-MHC binding, purified MHC/competitive/radioactivity; bounds were set here for any values at or beyond the usual limits of such assays; conditions: source organism: Homo sapiens
measured-attribute: IC50 (nM)
Give the value, in units of nM, as a plain number.

Memo: `LPFRNCPRF` , reported IC50: 400

Memo: `SPATLLLVL` , reported IC50: 176

Memo: `CPLERFAEL` , reported IC50: 103

Memo: `LPTNASLSF` , reported IC50: 115

Memo: `MPREDAHFI` , reported IC50: 450

Memo: `SPSCPLERF` , reported IC50: 379

Memo: `HPEDTGQVF` , reported IC50: 206
